Origin of the recorded values: patent US20050153870A1

# Tested on: Lean
# Method description: Body weight and blood sugar in Lean mice (Example 7)
# Format: in vivo, mouse
# Test settings: in feed for a week, contents as in table
# Procedure: [The procedure below names another variant; the source lists this variant under the same test.] Powered feed to which ascofuranone (AF) and ascochlorin (AC) as well as its derivatives, 4-0-methylascochlorin (MAC), 4-0-carboxymethylascochlorin (AS-6), and 4-0-nicotinoyl ascochlorin (AS-103) were added to feed at the proportions shown in the table, and the feed were given to db/db mice for a week and then analyzed for blood sugar decreasing effect (8 mice/group).
The entries below are paired with their reported Body weight, change vs control group.
Parameter: Body weight, change vs control group (%**)

>>> numeric_value("CC(/C=C/[C@@]1(C)[C@H](C)CCC(=O)[C@@H]1C)=C\\Cc1c(O)c(Cl)c(C)c(C=O)c1O")
"−23.0"
>>> numeric_value("CC(/C=C/C1(C)C(C)CCC(=O)C1C)=C\\Cc1c(O)c(C=O)c(C)c(Cl)c1OC(=O)c1cccnc1 (centres unmarked)")
"−12.0"

* * *

# System: Lean
# Method description: Body weight and blood sugar in Lean mice (Example 7)
# Format: in vivo, mouse
# Test settings: in feed for a week, contents as in table
Marks after values point to notes of the source that are not given here.
Parameter: Blood sugar level, change vs control group

>>> result("CC(/C=C/C1(C)C(C)CCC(=O)C1C)=C\\Cc1c(O)c(C=O)c(C)c(Cl)c1OC(=O)c1cccnc1 (centres unmarked)")
"−13.9%*"
>>> result("CC(/C=C/[C@@]1(C)[C@H](C)CCC(=O)[C@@H]1C)=C\\Cc1c(O)c(Cl)c(C)c(C=O)c1O")
"−12.5%**"
>>> result("CC(C=CC1(C)C(C)CCC(=O)C1C)=CCc1c(O)c(C=O)c(C)c(Cl)c1OCC(=O)O (centres unmarked)")
"ns"
>>> result("C/C(=C\\Cc1c(O)c(Cl)c(C)c(C=O)c1O)CC/C=C(\\C)[C@@H]1CC(=O)C(C)(C)O1")
"−23.7%**"
>>> result("COc1c(Cl)c(C)c(C=O)c(O)c1C/C=C(C)/C=C/[C@@]1(C)[C@H](C)CCC(=O)[C@@H]1C")
"ns"

* * *

# Test system: Lean
# Method description: Body weight and blood sugar in Lean mice (Example 7)
# Format: in vivo, mouse
# Test settings: in feed for a week (MAC 0.05%, AS-103 0.05%, AR-610 0.1%, AF 0.4%, AC 0.05%), control group 211.2 ± 7.8
Please note: TRUE applies when Blood sugar level is 200 mg/dL or greater, and FALSE applies otherwise.

>>> classification("CC(/C=C/C1(C)C(C)CCC(=O)C1C)=C\\Cc1c(O)c(C=O)c(C)c(Cl)c1OC(=O)c1cccnc1 (centres unmarked)")
"FALSE"
>>> classification("C/C(=C\\Cc1c(O)c(Cl)c(C)c(C=O)c1O)CC/C=C(\\C)[C@@H]1CC(=O)C(C)(C)O1")
"FALSE"
>>> classification("COc1c(Cl)c(C)c(C=O)c(O)c1C/C=C(C)/C=C/[C@@]1(C)[C@H](C)CCC(=O)[C@@H]1C")
"TRUE"
>>> classification("CC(/C=C/[C@@]1(C)[C@H](C)CCC(=O)[C@@H]1C)=C\\Cc1c(O)c(Cl)c(C)c(C=O)c1O")
"FALSE"

* * *

# System: db/db mice
# Method description: Blood sugar decreasing effect in db/db mice (Example 7)
# Type: in vivo, mouse
# Test settings: in feed for a week (MAC 0.05%, AS-103 0.05%, AR-610 0.1%, AF 0.4%, AC 0.05%), control group 44.6 ± 0.9
Parameter: Body weight (g)

>>> numeric_value("COc1c(Cl)c(C)c(C=O)c(O)c1C/C=C(C)/C=C/[C@@]1(C)[C@H](C)CCC(=O)[C@@H]1C [4-O-methylascochlorin]")
45.5
>>> numeric_value("C/C(=C\\Cc1c(O)c(Cl)c(C)c(C=O)c1O)CC/C=C(\\C)[C@@H]1CC(=O)C(C)(C)O1 [AF, ascofuranone]")
44.8
>>> numeric_value("CC(/C=C/[C@@]1(C)[C@H](C)CCC(=O)[C@@H]1C)=C\\Cc1c(O)c(Cl)c(C)c(C=O)c1O [AC, ascochlorin]")
38.9
>>> numeric_value("CC(C=CC1(C)C(C)CCC(=O)C1C)=CCc1c(O)c(C=O)c(C)c(Cl)c1OCC(=O)O (centres unmarked) [AS-6, 4-O-carboxymethylascochlorin]")
45.3
>>> numeric_value("CC(/C=C/C1(C)C(C)CCC(=O)C1C)=C\\Cc1c(O)c(C=O)c(C)c(Cl)c1OC(=O)c1cccnc1 (centres unmarked) [AS-103, 4-0-nicotinoyl ascochlorin]")
42.0

* * *

# System: db/db mice
# Method description: Blood sugar decreasing effect in db/db mice (Example 7)
# Type: in vivo, mouse
# Test settings: in feed for a week (MAC 0.05%, AS-103 0.05%, AR-610 0.1%, AF 0.4%, AC 0.05%), control group 549.8 ± 21.8
This section presents molecules with their documented Blood sugar level values.
Parameter: Blood sugar level (mg/dL)

>>> numeric_value("CC(/C=C/C1(C)C(C)CCC(=O)C1C)=C\\Cc1c(O)c(C=O)c(C)c(Cl)c1OC(=O)c1cccnc1 (centres unmarked)")
331.3
>>> numeric_value("COc1c(Cl)c(C)c(C=O)c(O)c1C/C=C(C)/C=C/[C@@]1(C)[C@H](C)CCC(=O)[C@@H]1C")
478.0
>>> numeric_value("CC(/C=C/[C@@]1(C)[C@H](C)CCC(=O)[C@@H]1C)=C\\Cc1c(O)c(Cl)c(C)c(C=O)c1O")
262.1
>>> numeric_value("CC(C=CC1(C)C(C)CCC(=O)C1C)=CCc1c(O)c(C=O)c(C)c(Cl)c1OCC(=O)O (centres unmarked)")
335.8
>>> numeric_value("C/C(=C\\Cc1c(O)c(Cl)c(C)c(C=O)c1O)CC/C=C(\\C)[C@@H]1CC(=O)C(C)(C)O1")
385.5

* * *

# Tested on: Lean
# Method description: Body weight and blood sugar in Lean mice (Example 7)
# Format: in vivo, mouse
# Test settings: in feed for a week, contents as in table
Parameter: Body weight, change vs control group

>>> result("C/C(=C\\Cc1c(O)c(Cl)c(C)c(C=O)c1O)CC/C=C(\\C)[C@@H]1CC(=O)C(C)(C)O1")
"ns"
>>> result("COc1c(Cl)c(C)c(C=O)c(O)c1C/C=C(C)/C=C/[C@@]1(C)[C@H](C)CCC(=O)[C@@H]1C")
"ns"
>>> result("CC(C=CC1(C)C(C)CCC(=O)C1C)=CCc1c(O)c(C=O)c(C)c(Cl)c1OCC(=O)O (stereo not drawn)")
"ns"
